Molecular target: T1, human PCSK9 (Proprotein Convertase Subtilisin/Kexin type 9) (human, UniProt Q8NBP7 31-692, biotin label in the ELISA formats (site not stated))
T1 construct: 85 kDa was used as the analyte's mass in SPR; also called PCSK9 (WT); wild type PCSK9
Test: binding ELISA on human PCSK9
pEC50: −log10 of the molar value.

[
  {
    "binder": "40409 (hIgG4) (antibody, V domains shown, human IgG4 constant region) VH: QLNLQQSGPGLVNPSQTLSLTCAISGGSVSSNSAAWNWIRQSPSRGLEWLGRIYSRSKWYHDYAVSVKGRITINPDTSKNQFFLQLNSVTPEDTAVYYCARDWETIIWGDDGPNYYNYGLDVWGQGTTVTVSS VL: DIQMTQSPSSLSASVGDRVTITCRASQGIRNDLGWYQQKPGKAPKRLIYGASSLQSGVPSRFSGSGSGTEFTLTISSLQPEDFATYYCLQHNNYLWTFGQGTKVEIK",
    "pEC50": 10.62
  },
  {
    "binder": "15.14.2-uAb-IgG4L (antibody, V domains shown, human IgG4 constant region, lambda light chain) VH: EVQMLESGGGLVQPGGSLRLSCAVSGFTFSRFAMSWVRQAPGKGLDWVSSISDNAGRTYFADSVKGRFTISRDNSKNTLYLQMNSLRADDTAVYYCAKLSNWGPYGMDVWGQGTTVTVSS VL: QSALTQPPSASGSPGQSVTISCTGTSSDVGYYNYVSWYQQHPGEAPKLMIYEVNKRPSGVPDRFSGSKSGSTASLTVSGLQAVDEADYYCSSYAGSKNFVVFGGGTKLTVL",
    "pEC50": 10.51
  },
  {
    "binder": "19.3.8-uAb1-IgG4L (antibody, V domains shown, human IgG4 constant region, lambda light chain) VH: QVQLVQSGAEVKKPGASVKVSCKASGYTFTGYYINWVRQAPGQGLEWMGRINPNSGGTNYAQKFQGRVTMTRDTSINTAYMELSRLRSDDTAVYFCASWEGTVTTWDFYYYYGMDVWGQGTTVTVSS VL: QSALTQPASVSGSPGQSITISCTGTSSDVDTYNYVSWYQHHPGKAPKLIIFDVSNRPSGVSNRFSGSKSGNTASLTISGLQAEDEADYYCSSYTSSSTLVVFGGGTKLTVL",
    "pEC50": 9.89
  },
  {
    "binder": "17.72.3-uAb2-IgG4K (antibody, V domains shown, human IgG4 constant region, kappa light chain) VH: QVQLQESGPGLVKPSGTLSLTCAVSGGSIRSYNWWSWVRQPPGEGLEWIGEIHHSGTTNYNPSLKSRVTISVDKSKNQFSLKLSSVTAADTAVYYCARDYSGSYFDYWGQGTLVTVSS VL: EVVLTQSPATLSLSPGERATLSCRTSQSLSSYVAWSQQKPGQAPRLLIYDASKRATGVPARFSGSGSGTDFTLTISNLEPEDFAVYYCHQRGNWMSSFGQGTKLEIK",
    "pEC50": 10.44
  }
]
